We begin with a simple list: items and their reported % Inhibition.
- Tested On: MICA*004 on HCC1534 cells (human, UniProt Q29983 24-383); further: test concentration or dose not given here
- Experiment Notes: cell-based or functional assay
The response must be a number in % with no trailing unit.

The examples below pair each entry with its known result.
{"Binder": "1D5v13 (antibody, IgG1, V domains shown, humanized variant of 1D5) VH: EIQLVQSGAEVKKPGASVKVSCKASGYAFTSQNIYWVRQAPGQGLEWIGYIEPYNVVPMYNPKFKGRATLTVDKSTSTAYMELRSLRSDDTAVYYCARSGSSNFDYWGQGTLVTVSS VL: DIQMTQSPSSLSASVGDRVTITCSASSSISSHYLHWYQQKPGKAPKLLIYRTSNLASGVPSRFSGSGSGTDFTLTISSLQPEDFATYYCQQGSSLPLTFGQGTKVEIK", "Unit Label": "%", "Measured Number": 49}
{"Binder": "1D5v1 (antibody, IgG1, V domains shown, humanized variant of 1D5; also called lD5v1) VH: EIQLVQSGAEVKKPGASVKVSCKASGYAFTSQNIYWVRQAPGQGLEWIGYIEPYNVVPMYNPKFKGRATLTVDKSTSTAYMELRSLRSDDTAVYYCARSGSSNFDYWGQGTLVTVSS VL: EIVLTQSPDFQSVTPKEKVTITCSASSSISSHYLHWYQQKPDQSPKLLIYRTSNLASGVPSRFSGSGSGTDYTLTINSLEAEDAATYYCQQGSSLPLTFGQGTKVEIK", "Unit Label": "%", "Measured Number": 54}

The binder 1D5v9 (antibody, IgG1, V domains shown, humanized variant of 1D5) VH: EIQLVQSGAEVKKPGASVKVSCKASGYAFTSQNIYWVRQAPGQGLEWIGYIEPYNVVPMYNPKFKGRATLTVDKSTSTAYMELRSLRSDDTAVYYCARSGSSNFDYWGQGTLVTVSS VL: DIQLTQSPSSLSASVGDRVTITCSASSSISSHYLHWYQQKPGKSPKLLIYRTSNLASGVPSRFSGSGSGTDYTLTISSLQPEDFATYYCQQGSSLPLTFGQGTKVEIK showed % Inhibition equal to 53
